- Target Of Assay: SIRT1 (Homo sapiens)
- Construct: His-tag (N); made in house; host or cells: E. coli BL21(DE3), T7-promoter vector
- Sequence (Q96EB6 1-747): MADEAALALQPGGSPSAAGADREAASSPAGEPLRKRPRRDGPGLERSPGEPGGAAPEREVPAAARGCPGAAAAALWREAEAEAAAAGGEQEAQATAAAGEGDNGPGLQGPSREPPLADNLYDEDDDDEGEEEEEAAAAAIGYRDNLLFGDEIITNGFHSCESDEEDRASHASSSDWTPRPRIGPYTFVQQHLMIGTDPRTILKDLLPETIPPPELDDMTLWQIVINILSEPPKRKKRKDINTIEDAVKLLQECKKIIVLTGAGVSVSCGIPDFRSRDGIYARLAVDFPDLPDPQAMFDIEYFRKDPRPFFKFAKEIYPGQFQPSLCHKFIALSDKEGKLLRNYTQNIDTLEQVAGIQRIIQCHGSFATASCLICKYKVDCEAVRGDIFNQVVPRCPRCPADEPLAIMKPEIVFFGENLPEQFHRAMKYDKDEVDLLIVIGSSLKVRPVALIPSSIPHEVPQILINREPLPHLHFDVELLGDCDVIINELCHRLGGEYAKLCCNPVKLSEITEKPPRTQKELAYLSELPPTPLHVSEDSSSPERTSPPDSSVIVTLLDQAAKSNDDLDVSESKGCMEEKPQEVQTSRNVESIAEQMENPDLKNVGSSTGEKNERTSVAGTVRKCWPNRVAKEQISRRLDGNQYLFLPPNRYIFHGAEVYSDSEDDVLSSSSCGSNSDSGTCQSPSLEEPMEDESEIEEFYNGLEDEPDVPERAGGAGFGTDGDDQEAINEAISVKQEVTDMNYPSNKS
- Experimental Protocol: Mass spectrometry based assay for modulators of SIRT1 activity (deacetylation of p53-based acetylated peptide)
- Assay type: biochemical
- Assay Conditions: percent maximum fold activation of SIRT1
Quantity: Emax

Field: example entries. Status: answers known.
> print(dat)
                                   molecule  quantity  endpoint.result
1  Cc1ccc(NC(=O)c2cccn3cc(-c4ccc(F)cc4C(F)(F)F)nc23)cc1 [Compound 141]      Emax           > 200%
2  O=C(Nc1ccccn1)c1cccn2nc(-c3ccccc3OC(F)F)nc12 [Compound 226]      Emax           > 200%
3  Cc1ccc(-c2cn3ccnc(C(=O)Nc4cccc(CN5CCOCC5)n4)c3n2)cn1 [Compound 165]      Emax           < 200%
4  O=C(Nc1nc(CN2CCOCC2)cs1)c1cccn2cc(-c3cccc(F)c3F)nc12 [Compound 231]      Emax           < 200%
5  O=C(Nc1nc(CN2CCOCC2)cs1)c1nccn2cc(-c3ccc(F)c(F)c3)nc12 [Compound 194]      Emax           > 200%
6  O=C(Nc1ccc(CCN2CCOCC2)cc1)c1cccn2cc(-c3ccc(F)cc3C(F)(F)F)nc12 [Compound 170]      Emax           > 200%

Now consider a different molecule.
Request: Need Emax of O=C(Nc1nccs1)c1cccn2nc(-c3cccc(N4CCOCC4)c3)nc12 [Compound 181] , thanks.
Response: < 200%

----------
- Target Of Assay: SIRT1 (Homo sapiens, UniProt Q96EB6)
- Construct: His-tag (N); made in house; host or cells: E. coli BL21(DE3), T7-promoter vector
- Experimental Protocol: Mass spectrometry based assay for modulators of SIRT1 activity (deacetylation of p53-based acetylated peptide)
- Type: biochemical
- Assay Conditions: percent maximum fold activation of SIRT1
Listed molecules paired with reported Emax

Field: example entries. Status: answers known.
> print(dat)
                           structure.string  endpoint.result
1     O=C(Nc1nccs1)c1cccn2cc(-c3ccccc3)nc12           < 200%
2  Cc1ccc(-c2nc3c(C(=O)Nc4ccccn4)cccn3n2)cn1           < 200%
3  O=C(Nc1nccs1)c1nccn2cc(-c3ccccc3OC(F)(F)F)nc12           > 200%
4  O=C(Nc1ccccn1)c1cccn2cc(-c3ccc(C(F)F)cc3)nc12           < 200%
5  O=C(Nc1cccn2cc(-c3cccc(-c4ccccc4)c3)nc12)c1cnccn1           < 200%

Request: Need Emax of O=C(Nc1nc(CN2CCOCC2)cs1)c1cccn2nc(-c3cccc(OC(F)(F)F)c3)nc12 , thanks.
Response: > 200%

Request: Need Emax of O=C(Nc1ccccn1)c1cccn2cc(-c3ccc(C(F)(F)F)cc3)nc12 , thanks.
Response: < 200%

Request: Need Emax of O=C(Nc1nccs1)c1nccn2cc(-c3cccc(OC(F)(F)F)c3)nc12 , thanks.
Response: < 200%

Request: Need Emax of O=C(Nc1cccc(CN2CCOCC2)n1)c1cccn2cc(-c3ccc(C(F)F)cc3)nc12 , thanks.
Response: > 200%

Request: Need Emax of O=C(Nc1cccn2cc(-c3cccc(C(F)(F)F)c3)nc12)c1cscn1 , thanks.
Response: < 200%

Request: Need Emax of O=C(Nc1ccc(CN2CCOCC2)cc1)c1cccn2cc(-c3ccc(F)cc3C(F)(F)F)nc12 , thanks.
Response: > 200%

Request: Need Emax of O=C(Nc1cccn2cc(-c3cccc(-c4ccccc4)c3)nc12)c1ncccn1 , thanks.
Response: < 200%

Request: Need Emax of O=C(Nc1cccc(CN2CCOCC2)n1)c1cccn2cc(-c3cccc(F)c3F)nc12 , thanks.
Response: < 200%

Request: Need Emax of Cc1cc(-c2nc3c(C(=O)Nc4nccs4)cccn3n2)ccn1 , thanks.
Response: > 200%

Request: Need Emax of O=C(Nc1ccccn1)c1cccn2nc(-c3cc(N4CCOCC4)ccc3C(F)(F)F)nc12 , thanks.
Response: > 200%

Request: Need Emax of O=C(Nc1cnccn1)c1nccn2cc(-c3ccc(F)cc3C(F)(F)F)nc12 , thanks.
Response: > 200%

Request: Need Emax of O=C(Nc1ccccn1)c1cccn2cc(-c3ccc(F)cc3)nc12 , thanks.
Response: < 200%

Request: Need Emax of O=C(Nc1cnccn1)c1nccn2cc(-c3ccccc3C(F)(F)F)nc12 , thanks.
Response: > 200%
